Listed below: Percent Effect values for each entry.
Tested on: Wolbachia pipientis
Assay: Anti-Wolbachia Cell-Based Screen
Format: functional
Design: scale not given: in the data most compounds retested in dose-response had high values
Details: 5 µM
Among all 48,000 compounds or so, about 13,000 (27%) showed an effect of 50% or more. This is one part of the list.
Please reply with the bare figure in % and do not write the unit itself.

Before answering, review these 3 worked examples.
{"columns": ["COMPOUND", "Percent Effect / %"],
 "data": [
  ["O=C1CC2(CCN(CCCF)CC2)CN1Cc1cc(F)cc(F)c1", 93.67],
  ["O=C1CC2(CCN(Cc3ccoc3)CC2)CN1Cc1cc(F)cc(F)c1", 87.88],
  ["Cn1ncc(NC(=O)c2noc3c2CCCC3)c1C(N)=O", 112.2]
]}

# context switch: different compound, same Percent Effect
Prompt: State recorded Percent Effect with Wolbachia pipientis, entry O=C(c1ccc[nH]1)N1CCOCC12CCCC2 , no comment.
Completion: 75.31
